Give IC50 for every item shown.
measured_on: BTK enzyme (recombinant full-length BTK, hBTK) (Homo sapiens, UniProt Q06187)
Construct: recombinant protein from baculovirus-transfected Sf9 cells: full-length BTK, 6HIS-tag cleaved; 6HIS (cleaved yes); made in house; host or cells: baculovirus-transfected Sf9 cells
Sequence (Q06187 whole entry): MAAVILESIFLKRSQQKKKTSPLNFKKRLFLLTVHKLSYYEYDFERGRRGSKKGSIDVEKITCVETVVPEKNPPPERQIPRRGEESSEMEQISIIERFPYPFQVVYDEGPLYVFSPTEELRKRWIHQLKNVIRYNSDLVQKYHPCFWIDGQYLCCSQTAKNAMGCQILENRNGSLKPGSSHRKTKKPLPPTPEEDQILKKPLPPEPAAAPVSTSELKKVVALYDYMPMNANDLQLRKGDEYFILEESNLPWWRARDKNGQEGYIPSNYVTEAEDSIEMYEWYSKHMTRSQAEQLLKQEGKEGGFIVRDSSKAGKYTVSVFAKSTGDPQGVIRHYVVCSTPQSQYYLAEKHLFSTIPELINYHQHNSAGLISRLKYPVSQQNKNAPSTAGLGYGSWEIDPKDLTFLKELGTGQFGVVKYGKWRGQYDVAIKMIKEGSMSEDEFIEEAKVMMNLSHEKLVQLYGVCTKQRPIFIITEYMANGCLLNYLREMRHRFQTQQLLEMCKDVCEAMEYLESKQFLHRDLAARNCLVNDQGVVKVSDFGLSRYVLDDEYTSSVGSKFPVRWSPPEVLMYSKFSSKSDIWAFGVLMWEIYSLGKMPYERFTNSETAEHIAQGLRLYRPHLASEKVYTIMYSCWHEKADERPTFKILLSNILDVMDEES
assay_procedure: BTK enzyme activity assay, LANCE TR-FRET
Type: biochemical
settings: 50 pM hBTK, 2 μM biotin-A5-peptide, 25 μM ATP; 60 min compound & enzyme incubation; read-out: IC50 BTK activity value

1. Nc1nccn2c([C@H]3CN4C(=O)OC[C@H]4CO3)nc(-c3ccc(C(=O)Nc4cc(C(F)(F)F)ccn4)cc3)c12 = 24.9 nM
2. COC(=O)Nc1nccn2c([C@@H]3CC[C@H]4CCC(=O)N4C3)nc(-c3ccc(C(=O)Nc4cc(C(F)(F)F)ccn4)cc3)c12 = 7.3 nM
3. Nc1nccn2c([C@@H]3CC[C@H]4CNCC(=O)N4C3)nc(-c3ccc(C(=O)Nc4cc(C(F)(F)F)ccn4)cc3)c12 = 0.22 nM
4. Nc1nccn2c([C@@H]3CC[C@H]4CCC(=O)N4C3)nc(-c3ccc(C(=O)Nc4cc(C5CC5)ccn4)cc3OC3CC3)c12 = 1.4 nM
5. Nc1nccn2c([C@@H]3CC[C@H]4CCC(=O)N4C3)nc(-c3ccc(C(=O)Nc4cc(C(F)(F)F)no4)cc3)c12 = 241 nM

For each of the compounds below, note its IC50.
1. Nc1nccn2c([C@H]3CC[C@@H]4CCC(=O)N4C3)nc(-c3ccc(C(=O)Nc4ccccn4)cc3)c12
2. Nc1nccn2c([C@@H]3CC[C@H]4CCC(=O)N4C3)nc(-c3ccc(C(=O)Nc4cc(C5CC5)ccn4)cc3F)c12
3. COC(C)c1ccnc(NC(=O)c2ccc(-c3nc([C@@H]4CC[C@H]5CCC(=O)N5C4)n4ccnc(N)c34)cc2)c1 (stereo partly shown)
4. Cc1cnc(NC(=O)c2ccc(-c3nc([C@@H]4CC[C@H]5CCC(=O)N5C4)n4c(Cl)cnc(N)c34)c(Cl)c2)s1
5. COc1cc(C(=O)Nc2cc(C3CC3)ccn2)ccc1-c1nc([C@@H]2CC[C@H]3CCC(=O)N3C2)n2ccnc(N)c12
6. Cc1cc(C(=O)Nc2cc(C(F)(F)F)ccn2)cc(F)c1-c1nc([C@@H]2CC[C@H]3CCC(=O)N3C2)n2ccnc(N)c12

## Output
1: 194 nM; 2: 0.2 nM; 3: 1.5 nM; 4: 1.5 nM; 5: 1.9 nM; 6: 2.2 nM

For each of the compounds below, note its IC50.
1. C[C@@H]1OC(=O)N2C[C@H](c3nc(-c4ccc(C(=O)Nc5cc(C6CC6)ccn5)cc4F)c4c(N)nccn34)CC[C@@H]12
2. CCOc1cc(C(=O)Nc2cc(C(F)(F)F)ccn2)c(F)cc1-c1nc([C@@H]2CC[C@H]3CCC(=O)N3C2)n2c(F)cnc(N)c12

## Output
1. 0.39 nM
2. 3.7 nM

----------
measured_on: BTK enzyme (recombinant full-length BTK, hBTK) (Homo sapiens)
Construct: recombinant protein from baculovirus-transfected Sf9 cells: full-length BTK, 6HIS-tag cleaved; 6HIS (cleaved yes); made in house; host or cells: baculovirus-transfected Sf9 cells
assay_procedure: BTK enzyme activity assay, LANCE TR-FRET
Type: biochemical
settings: 50 pM hBTK, 2 μM biotin-A5-peptide, 25 μM ATP; 60 min compound & enzyme incubation; read-out: IC50 BTK activity value
Give IC50 for every item shown.
One number for each entry, in nM.

Here's what some known entries look like.
1. Nc1nccn2c([C@@H]3CC[C@H]4CCC(=O)N4C3)nc(-c3ccc(C(=O)Nc4cc(C(F)(F)F)ccn4)nc3)c12 = 3.3
2. Nc1nccn2c([C@@H]3CC[C@H]4CCC(=O)N4C3)nc(-c3ccc(C(=O)Nc4cc(C(F)(F)F)on4)cc3)c12 = 245
3. CCOc1cc(C(=O)Nc2cc(C(F)(F)F)n(C)n2)ccc1-c1nc([C@@H]2CC[C@H]3CCC(=O)N3C2)n2c(C)cnc(N)c12 = 1.2
4. COc1cc(C(=O)Nc2cc(C(F)(F)F)n(C)n2)ccc1-c1nc([C@@H]2CC[C@H]3CCC(=O)N3C2)n2c(Cl)cnc(N)c12 = 1.5
5. Nc1nccn2c([C@H]3CC[C@H]4C[C@@H](O)C(=O)N4C3)nc(-c3ccc(C(=O)Nc4cc(C(F)(F)F)ccn4)cc3)c12 = 0.93
6. Cc1nnc(NC(=O)c2ccc(-c3nc([C@@H]4CC[C@H]5CCC(=O)N5C4)n4ccnc(N)c34)cc2)s1 = 272
7. CC(C)c1cc(C(F)(F)F)cc(NC(=O)c2ccc(-c3nc([C@@H]4CC[C@H]5CCC(=O)N5C4)n4ccnc(N)c34)cc2)n1 = 278
8. Nc1nccn2c([C@@H]3CC[C@H]4CCC(=O)N4C3)nc(-c3ccc(C(=O)Nc4cc(C(F)F)ccn4)cc3)c12 = 0.31

For each of the compounds below, note its IC50.
1. COc1cc(C(=O)Nc2ncc(C)s2)ccc1-c1nc([C@@H]2CC[C@H]3CCC(=O)N3C2)n2c(Cl)cnc(N)c12
2. COc1cc(C(=O)Nc2cc(C3CC3)ccn2)ccc1-c1nc([C@@H]2CC[C@H]3[C@@H](C)OC(=O)N3C2)n2ccnc(N)c12
3. Nc1nccn2c([C@@H]3CC[C@H]4CCC(=O)N4C3)nc(-c3ccc(C(=O)Nc4cc(C(F)(F)F)ccn4)cc3OC3CCCC3)c12
4. Nc1nccn2c([C@@H]3CC[C@H]4CCC(=O)N4C3)nc(-c3ccc(C(=O)Nc4cc(C(F)(F)F)ccn4)cc3OC3CCCCC3)c12
5. Nc1nccn2c([C@H]3CC[C@H]4CCC(=O)N4C3)nc(-c3ccc(C(=O)Nc4cc(C(F)(F)F)ccn4)cc3)c12

## Output
[1.7, 0.5, 23.7, 135, 14.7]
